Every entry's value here was drawn from the nanobody polyreactivity screen of Harvey et al. (2022).

assay: yeast display, Sf9 membrane polyspecificity reagent, FACS + sequencing; frameworks hold sequencing errors
parameter: polyreactivity (PSR sort gate)

Example entries begin here.
QVQLVESGGGLVQAGGSLRLSCAASGLIFWYYTMGWYRQAPGKESELVAAITIGGSTYYADSVKGRFTISRDNAKNTVYLQMNSLKPEDTAVYYCNTRRGRSPGGRYEYDYWGQGTQVTVSS; low polyreactivity
QVQLVESGGGLVQAGGSLRLSCAASGSTFHYYVMGWYRQAPGKERELDAAIRRSGGTTYYADSVKGRFTISRDNAKNTVYLQMNSLKPEDTAVYYCAAYFFHYHFYQAAYDYWGQGTQVTVSS; low polyreactivity
QVQLVESGGGLVQAGGSLRLSCAASVFIFGLYAMGWYRQAPGKERELVAAISRSGGSTYYADSVKGRFTISRDNEKNTVYLQMNSLKPEDTAVYYCAKRASPRQAGPIYDSWGQGTQVTVSS; high polyreactivity
QVQLVESGGGLVQAGGSLRLSCAASGSTLNRNAMGWYRQAPGKERELVAAIRVSGGSTYYADSVKGRFTISRDNAKNTVYLQMNSLKPEDTAVYYCATRYVRARWYGYWGQGTQVTVSS; high polyreactivity

Next:
Ask: Output polyreactivity (PSR sort gate) of `QVQLVESGGGLVQAGGSLSLSCAASGSIFASNTMGWYRPAPGKERELVAGITKIGSSTYYADSVKGRFTISRDNAKNTVYLQMNSLKPEDTAVYYCNAYGPNIYSSRYDYWGQGTQVTVSS`
Result: low polyreactivity

---

assay: yeast display, Sf9 membrane polyspecificity reagent, FACS + sequencing; frameworks hold sequencing errors
parameter: polyreactivity (PSR sort gate)

Recorded polyreactivity (PSR sort gate), per entry:
QVQLVESGGGLVLAGGSLRLSCAASGGIFYGYAMGWYREAPGKEREMVAAISSTGGRTYYADSVKGRFTISRDNAKNTVYLQMNSLKPEETAVYYCAAEDFTRQFEYWGQGTQVTVSS; low polyreactivity
QVQLVESGGGLVQAGGSLRLSCAASGRTLSVYAMGWYSQAPGKEMEFVAAISFSGGSTYYADSVKGRFTISRDNAKNTVYLQMNSQKPEDTAVYYCATAYPEFLSTTVGLLYLDDYWGQGTQVTVSS; low polyreactivity
QVQLVESGGGLVQAGGSLRLSCAASGSTFSRNAMGWYRQAPGKERELVATISRSGRTNYADSVKGRFTISRDNAKNTVYLQMNSLKPEDTAVSYCNAGYRRSYEYWGQGTQVTVSS; low polyreactivity
QVQLVESGGGLVQAGGSLRLSCAASGSIFRYVMGWYRQAPGKERELVAAISIRGGSTYYADSVKGRFTISRDNAKNTVYLQMNSLKPEDTAVYYCAADRYRLGVKYDYWGQGNQVTVSS; high polyreactivity
QVQLVESGGGLVQAGGSLRLSCAASGGIIGWYAMGWYRQAPGKERELVAAINWSGADTYYADSVKGRFTISRDNAKNTVYLQMNSLKPEDTAVYYCAADGHKYRMDYWGQGTQVTVSS; low polyreactivity
QVQLVESGGGLVQAGGSLRLSCAASGIIFYLYAMGWYRQAPGKERELVAAISRRGGSTYYADSVKGRFTISRDNAKNTVYLQMNSLKPEDTAVYYCAATIGTFGYGYWGQGTQVTVSS; high polyreactivity

Ask: Please give the documented polyreactivity (PSR sort gate) of `QVQLVESGGALVQAGGSLRLSCAASARIFGRNAMGWYTQAPGKERELVAAISSGGSTYYADSVKGRFTISRDNAKKTVYLQMNSLKPEDTAVYYCAVRGYYFNGGRAFESWGQGTQVTVSS`
Result: high polyreactivity

Ask: Report polyreactivity (PSR sort gate) for `QVHLVESGGGLVQAGGSLRLSCAASGFTFPIYAIGWYRQAPGKERELVAAITTRGGSTYYADSVKGRFTISRDNAKNTVYLQMNSLKPEDTAVYYCNNRGRRTDYDYWGQGTQVTVSS`
Result: high polyreactivity

Ask: Recall and state the measured polyreactivity (PSR sort gate) for `QVQLVESGGGLVQAGGSLRLSCAASGSIFPYYAMGWYRQAPGKERDLVAAISWSGTSTYYADSLKGRFTISRDNAKNTVYLQMNSLNPEDTAVYYCAASGVGTNHYGYWNESDYWGQGTQVTVSS` .
Result: low polyreactivity

Ask: Complete the entry with polyreactivity (PSR sort gate) for `QLQIVESGGGLVQAGGSLRLISAASGSTLAYYAMGWYRQEPGKERELVAAINWRTYYADSVKGRFTISRDNAMNTLYLQMNSLKPEDTAVYYCAAGYYLNKFYYWGQGTQVTVSS`
Result: high polyreactivity

Ask: Specify measured polyreactivity (PSR sort gate) for `QVQLVESGGGLVQAGGSLRLSCAASGILYYYAMGWYRQAPGKERELVAAITSGGSTNYADSVKGRFTISRDNAKNTVYLQMNSLKPEDTAVYYCNARRWWVIRDYWGQGTQVTVSS` .
Result: high polyreactivity

---

assay: yeast display, Sf9 membrane polyspecificity reagent, FACS + sequencing; frameworks hold sequencing errors
parameter: polyreactivity (PSR sort gate)

QVQLVESGGGLVQAGGSLRLSCAASGRILWYYAMGWYRQAPGKERELVASISWSGGRTYYADSVKGRFTISRDNAKNTVYLQMNSLKPEDTAVYYCAAQLTRWRKPGDMEYWGQGTQVTVSS; high polyreactivity
QVQLVESGGGLVQAGGSLRLSCAASGRTLFHYAMGWYRQAPGKERELVAAIRNSDGSTYYADSVKGRFTISRDNAKNTVYLQMNSLKPEDTAVYYCAAVRRYHSYPDGGYWGQGTQVTVSS; high polyreactivity
QVQLVESGGGLVQAGGRLRLSSAASGSTFGYYAMGWYRQAPGKERELVAAISAGGGSTYYADSVKGRFTISRDNAKNTVYLQMISLKPEDTAVYYCAARGPHIPVKTYDYWGQGTQVTVSS; high polyreactivity
QVQLVESGGGLVQAGGSLRLSCAASGRTFLSNAMGWYRQEPGKERELVAAINSGDSTYYAYSVKGRFTISRYNAKNTVYLQMNSLKPEDTAVYYCAAAFYYRRMYYWGKGTQVTVSS; high polyreactivity

---

experiment: yeast display, Sf9 membrane polyspecificity reagent, FACS + sequencing; frameworks hold sequencing errors
parameter: polyreactivity (PSR sort gate)

QVQLVESGGGLVQAGGILRISCAASGRTFASNAMGWYRRAPGKERELVAAMSSSGGRTYYADSVKGRITISRDNAKNTVYLQMNSLKPEYTPVFYCAKVGPVYKYDYWGQGTQVTVSS; high polyreactivity
QVQLVESGGGLVQAGGSLRLSCAASGRIFGGYAMGWYRQAPGKERELVPSITGRATSTYYADSVKGRFTISRDNAKNTVYLQMNRLKPEDTAVYYFNALYRKYRNQWYISNYGYYYWGQGTQVTVSS; low polyreactivity
QVQLVESGGGLVKAGGSLRLSCAASGIIFSFYTMGWYRQAPGKQRELVAAITWSGGSTYYADSVKGRFTISRDNAKNTVYLQMNSLKPEDTAVYFCNARYPWRKRSQGYSWGQGTQVTVSS; low polyreactivity
QVQLVESGGGLVQAGGSLRLSCAASGRIFYYNDLGWYRQAPGKERELVAAISGSGGSTYYADSVKGRFTISRDNAKNTVYLQMNSLKPEDTAVYYCSYYYWGQGTQVTVSS; low polyreactivity
QVQLVESRGGLVQAGGSLRLSCAASRFYTMGWYRQAPGKERELVAAISWSGGDTYYADSVKGRFTISRDNAKNTVYLQMNSLKPDDTAVYYCAKKTIGSYVHEPYYYWGQGTQVTVSS; low polyreactivity
QVQLVESGGGLVQAGGSLRLSCAASGSTFDIYVMGWYRQAPGKEREFVAAITTTTGRTNYADSVKGRFTISRDYAKNTVYLQMNSLKPEDTAVYYCAAYVTWGKLWYGYWGQGTQVTVSS; high polyreactivity

Ask: Give the reported polyreactivity (PSR sort gate) for this sequence. `QVQLVESGGGLVQAGGSLRLSCAASGSIFSTNAMGWYRQAPRKERELVAAITYSGSRTYYADSVKGRFTISRDNAKNTVYLQMNSLKPEDTAVYYCAADTSWYSWWFDYWGQGTQVTVSS`
Result: low polyreactivity

Ask: Read off the recorded polyreactivity (PSR sort gate) for `QVQLVESGGGLVQAGGSLRLSCAASGRTFRGNAMGWYRQAPGKERELVAVITSGDSTYYADSVKGRFTISRDNAKNTVYLQMNSLKPEDTAVYYCATKSRFSRGKAYYYWGQGTQVTVSS`
Result: high polyreactivity

Ask: Return reported polyreactivity (PSR sort gate). Input sequence: `QVQLVESGGGLVQAGGSLRLSCAASGRIFLYYAMGWYRQAPGKERELVAAIDSSGGNTNYADSVKGRFTISRDNAKNTVYLQMNSLKPEDTAVYYCAADFYVSADRWPNYDYWGHGTQVTVSS`
Result: low polyreactivity

Ask: Give a short answer stating reported polyreactivity (PSR sort gate) for `QVQLVESGGGLVQAGGSLRLSFAASEGWYRQAPGKERELVAAISYIGGSTYYADSEKGRFTISRDNAKNTVYLQMNRLKPEDTAVYYCAKGYPDPKWGGVLAYDYWGQGTQVTVSS` .
Result: low polyreactivity

Ask: Quickly give me recorded polyreactivity (PSR sort gate) for `QFHLLESGGRLDQAGGSLRLSCAASGIIFRGNAMGWYIQAPGKERELVAAISSGGSTYYADTVKGSFTISRDNAKNTVYLKMNCLKPEDTAVYYCNARWYFWGTLYGSWGQGTQVTVSS`
Result: high polyreactivity
